Target: Serine/threonine-protein kinase PLK1 (Homo sapiens) (UniProt P53350)
Sequence (P53350 whole entry, looked up, the tested form may be a part): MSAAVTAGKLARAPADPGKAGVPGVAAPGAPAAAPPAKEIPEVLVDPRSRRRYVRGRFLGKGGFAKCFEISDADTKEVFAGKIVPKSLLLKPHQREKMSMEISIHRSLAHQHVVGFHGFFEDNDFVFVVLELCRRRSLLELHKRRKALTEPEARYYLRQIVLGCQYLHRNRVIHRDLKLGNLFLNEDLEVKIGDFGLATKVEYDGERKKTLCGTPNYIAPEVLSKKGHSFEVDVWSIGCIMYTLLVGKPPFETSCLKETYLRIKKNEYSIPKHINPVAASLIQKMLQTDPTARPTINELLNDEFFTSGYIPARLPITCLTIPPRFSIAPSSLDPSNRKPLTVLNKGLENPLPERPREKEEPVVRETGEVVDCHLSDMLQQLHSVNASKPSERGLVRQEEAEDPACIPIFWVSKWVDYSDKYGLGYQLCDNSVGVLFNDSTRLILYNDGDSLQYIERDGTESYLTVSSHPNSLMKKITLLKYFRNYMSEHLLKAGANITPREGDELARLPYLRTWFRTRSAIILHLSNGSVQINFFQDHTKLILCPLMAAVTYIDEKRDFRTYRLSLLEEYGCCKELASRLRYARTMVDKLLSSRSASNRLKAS
Assay: qHTS for Inhibitors of PLK1-PDB (polo-like kinase 1 - polo-box domain): Primary Screen; also: series mostly up to about 57 µM; % is scaled to controls: 0 for no effect and ±100 for the full control effect; nearly all actives have a fitted effect of over 65% in size
Conditions: Plk1 PBD binding of FITC phosphopeptide, fluorescence polarization
Among all 360,000 compounds or so, about 10,000 (2.8%) were called active. About 4% were inconclusive and are not listed. The full list was thinned out, with actives kept by preference.
Lab note: compare max response, negative = inhibition against -10%. Equal or greater, write TRUE. Smaller, write FALSE.

Known results for molecules:
Prompt: Threshold query (max response, negative = inhibition >= -10%) on CC(=O)Nc1ccc(S(=O)(=O)NCCc2ccccc2)cc1
Completion: TRUE

Prompt: Confirm if max response, negative = inhibition reported for the molecule CCCNC(=O)c1cc(C2CCCCN2C(=O)OC)on1 (centres undefined) is -10% or above.
Completion: TRUE

Prompt: max response, negative = inhibition >= -10% for OC(c1ccc(Cl)c(F)c1)c1ncc(-c2ccccc2Cl)[nH]1 (centres undefined) ?
Completion: TRUE

Prompt: Confirm if max response, negative = inhibition reported for the molecule Cc1cc(C)cc(NC(=O)C2CCCN2S(=O)(=O)c2cccc3cccnc23)c1 (centres undefined) is -10% or above.
Completion: FALSE

Prompt: Given Cc1sc2ncn(CC(=O)NCCN(C)C)c(=O)c2c1S(=O)(=O)N1CCC(C)CC1 , state whether its max response, negative = inhibition is at least -10%.
Completion: FALSE

New cases:
Prompt: # check: max response, negative = inhibition of Nc1cc(=O)n(Cc2ccccc2)c(=O)n1Cc1ccccc1 is greater than or equal to -10%
Completion: FALSE

Prompt: Reported max response, negative = inhibition at or above -10%? Cc1ccc(NC(=O)C2CCCN2S(=O)(=O)c2cccc3cccnc23)c(C)c1 (centres undefined)
Completion: TRUE

* * *

Listed here are compounds together with their documented max response, negative = inhibition.
Target: Serine/threonine-protein kinase PLK1 (Homo sapiens) (UniProt P53350)
Experiment: qHTS for Inhibitors of PLK1-PDB (polo-like kinase 1 - polo-box domain): Primary Screen; also: series mostly up to about 57 µM; % is scaled to controls: 0 for no effect and ±100 for the full control effect; nearly all actives have a fitted effect of over 65% in size
Details: Plk1 PBD binding of FITC phosphopeptide, fluorescence polarization
About 10,000 (2.8%) of roughly 360,000 compounds were called active. Inconclusive results (about 4%) are left out. Only a selection was taken, and actives are over-represented in it overall.
The reply should be a number in %, with the unit left off.

Prompt: Entry Cc1ccccc1-c1csc(C(O)c2cccc(Cl)c2)n1 (stereo unspecified) : reported max response, negative = inhibition = ?
Completion: -10.6

Prompt: Need max response, negative = inhibition of COC(=O)Cc1ccc(NC(=S)NCc2ccccc2)cc1 , thanks.
Completion: -14.7

Prompt: Param item = O=CNc1cc(-c2ccc(C(=O)N3CCOCC3)cc2)cn2c(-c3ccc(F)cc3)cnc12 ; retrieve measured max response, negative = inhibition.
Completion: -25.7

***
Prompt: Item under review: O=S(=O)(NC1CC1)c1ccc(Cl)cc1 . Reported max response, negative = inhibition?
Completion: -11.6

Prompt: Requested field: max response, negative = inhibition. Item: CC(C)(C)CC(=O)Nc1nc(C(N)Cc2ccc(C(F)(F)F)cc2)cs1 (stereo unspecified)
Completion: -8.43

Prompt: Quick one: max response, negative = inhibition of O=C(Nc1nnc([C@H]2C[C@H](O)[C@@H](CO)O2)s1)c1cccc(Cl)c1 ?
Completion: -11.4

Prompt: What does the record list as max response, negative = inhibition for COc1ccc(CCNC(=O)CN(c2ccccc2)S(=O)(=O)c2ccccc2)cc1 ?
Completion: -1.56

Prompt: Recorded max response, negative = inhibition for O=C(Nc1nc(-c2ccco2)c(-c2ccco2)s1)c1ccco1 , please?
Completion: -24.5

Prompt: Which measured max response, negative = inhibition value corresponds to COc1ccc(C(CNC(=O)c2ccc(OCc3cscn3)cc2)N2CCCC2)cc1 (stereo unspecified) ?
Completion: 3.78
